Target: CDK2/CycE (Homo sapiens)
Construct: GST; purchased ProQinase GmbH (Freiburg, Germany); host or cells: insect cells (Sf9)
Test: CDK2/CycE high ATP kinase assay (TR-FRET, Method 2b)
Assay type: biochemical
Conditions: 2 mM ATP
pIC50: −log10 of the molar value.
MEASURED_ENDPOINT: pIC50

CC(C)(C)OC(=O)N=S(C)(=O)Cc1cc2cc(c1)OCCCCNc1cc(F)ccc1-c1nc(ncc1F)N2 (racemic)	5.47
CSCc1cc2nc(c1)Nc1cc(c(F)cn1)-c1ccc(F)cc1OCCCN2	6.27
C[S+]([O-])Cc1cc2nc(c1)OCCCCc1cc(F)ccc1-c1cc(ncc1F)N2 (racemic)	5.08

I: CS(=N)(=O)Cc1cc2nc(c1)Nc1cc(c(F)cn1)-c1ccc(F)cc1OCCCCN2 (racemic)
II: CC(C)(C)OC(=O)N=S(C)(=O)Cc1cc2cc(c1)OCCCCSc1cc(F)ccc1-c1nc(ncc1F)N2 (racemic)
III: CC(C)(C)OC(=O)N=S(C)(=O)Cc1cc2nc(c1)Nc1cc(c(F)cn1)-c1ccc(F)cc1OCCCN2 (racemic)
IV: CS(=N)(=O)Cc1cc2cc(c1)OCCCCSc1cc(F)ccc1-c1nc(ncc1F)N2 (racemic)
Prompt line: Arrange items by their pIC50 values in increasing order. // rank by listing labels in the order requested
Response line: II, IV, I, III

###

System: DU145 cells
Experiment: Proliferation assay, crystal violet (Method 3)
Assay type: cell-based
Conditions: Homo sapiens, DU-145, 96 h; DU145, 4 days; read-out: Inhibition of DU145 cell proliferation IC50
Text: […]
MEASURED_ENDPOINT: IC50 (nM)

C[S+]([O-])Cc1cc2nc(c1)OCCCCc1cc(F)ccc1-c1cc(ncc1F)N2 (racemic)	836

P: CS(=N)(=O)Cc1cc2nc(c1)Nc1cc(c(F)cn1)-c1ccc(F)cc1OCCCN2 (racemic)
Q: CC(C)(C)OC(=O)N=S(C)(=O)Cc1cc2cc(c1)OCCCCNc1cc(F)ccc1-c1nc(ncc1F)N2 (racemic)
Prompt line: Between the two listed entries P and Q , which has its IC50 at the higher number? Please respond with the label that marks your chosen entry.
Response line: Q
(Q: 40 nM, P: 5.6 nM)

A: CS(=N)(=O)Cc1cc2nc(c1)OCCCCCc1cc(F)ccc1-c1cc(ncc1F)N2 (racemic)
B: CS(=N)(=O)Cc1cc2cc(c1)OCCCCSc1cc(F)ccc1-c1nc(ncc1F)N2 (racemic)
Prompt line: Between the two listed entries A and B , which has its IC50 at the higher number? Please respond with the label that marks your chosen entry.
Response line: A

###

Target: CDK9/CycT1 (Homo sapiens, UniProt P50750)
Construct: Recombinant full-length His-tagged human CDK9 and CycT1; His; purchased Invitrogen PV4131; host or cells: insect cells
Sequence (P50750 whole entry): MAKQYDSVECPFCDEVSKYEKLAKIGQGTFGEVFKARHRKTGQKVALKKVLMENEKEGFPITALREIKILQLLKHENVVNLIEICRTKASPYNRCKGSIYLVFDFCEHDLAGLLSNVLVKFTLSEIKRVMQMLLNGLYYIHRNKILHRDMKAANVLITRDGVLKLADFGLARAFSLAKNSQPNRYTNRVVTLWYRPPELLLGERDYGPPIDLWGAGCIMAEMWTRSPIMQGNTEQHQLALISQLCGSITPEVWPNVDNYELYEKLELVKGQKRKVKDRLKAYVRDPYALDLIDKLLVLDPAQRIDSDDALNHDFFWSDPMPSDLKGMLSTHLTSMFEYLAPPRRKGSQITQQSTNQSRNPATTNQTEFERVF
Sequence (O60563 whole entry partner): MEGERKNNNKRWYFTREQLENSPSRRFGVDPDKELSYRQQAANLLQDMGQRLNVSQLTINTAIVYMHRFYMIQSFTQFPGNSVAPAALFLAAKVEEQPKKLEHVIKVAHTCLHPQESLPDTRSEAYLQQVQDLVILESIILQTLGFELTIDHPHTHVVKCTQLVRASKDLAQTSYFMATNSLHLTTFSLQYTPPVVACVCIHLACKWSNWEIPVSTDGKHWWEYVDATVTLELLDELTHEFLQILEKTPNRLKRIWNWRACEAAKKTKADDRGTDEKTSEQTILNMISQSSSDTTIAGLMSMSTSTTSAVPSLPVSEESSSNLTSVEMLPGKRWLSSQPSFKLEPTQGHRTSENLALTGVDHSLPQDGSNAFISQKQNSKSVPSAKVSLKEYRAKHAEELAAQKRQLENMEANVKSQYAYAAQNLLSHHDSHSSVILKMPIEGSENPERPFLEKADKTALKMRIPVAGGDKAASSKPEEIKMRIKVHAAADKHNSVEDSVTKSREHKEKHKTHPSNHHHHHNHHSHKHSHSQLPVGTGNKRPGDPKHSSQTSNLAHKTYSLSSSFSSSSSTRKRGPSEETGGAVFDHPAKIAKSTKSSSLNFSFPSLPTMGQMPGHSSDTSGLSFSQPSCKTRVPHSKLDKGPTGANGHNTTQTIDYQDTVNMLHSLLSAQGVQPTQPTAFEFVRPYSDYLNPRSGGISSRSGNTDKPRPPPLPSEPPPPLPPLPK
Experiment: CDK9/CycT1 high ATP kinase assay (TR-FRET, Method 1b)
Type: biochemical
Settings: Methods 1b and 2b, 2 mM ATP
MEASURED_ENDPOINT: Selectivity high ATP CDK9 over high ATP CDK2: IC50 (high ATP CDK2)/IC50 (high ATP CDK9)

Use these answered entries as a reference point.
CS(=N)(=O)Cc1cc2nc(c1)Nc1cc(c(F)cn1)-c1ccc(F)cc1OCCCCCN2 (racemic) [Example 10]	102
CSCc1cc2nc(c1)Nc1cc(c(F)cn1)-c1ccc(F)cc1OCCCN2 [Example 1]	140
C[S+]([O-])Cc1cc2nc(c1)OCCCCCc1cc(F)ccc1-c1cc(ncc1F)N2 (racemic) [Example 19]	82.9
CS(=N)(=O)Cc1cc2nc(c1)Nc1cc(c(F)cn1)-c1ccc(F)cc1OCCCCN2 (racemic) [Example 3]	167

1: CS(=N)(=O)Cc1cc2cc(c1)OCCCCSc1cc(F)ccc1-c1nc(ncc1F)N2 (racemic) [Example 22]
2: CS(=N)(=O)Cc1cc2cc(c1)OCCCNc1cc(F)ccc1-c1nc(ncc1F)N2 (racemic) [Example 14]
Prompt line: Between the two listed entries 1 and 2 , which has its Selectivity high ATP CDK9 over high ATP CDK2: IC50 (high ATP CDK2)/IC50 (high ATP CDK9) at the higher number? Please respond with the label that marks your chosen entry.
Response line: 1
(1: 244, 2: 94)
